Form field: residual activity (one value per entry).
target: PRKACG (human)
protocol: radiometric filter-binding kinase assay, Kinase HotSpot
assay-setup: compound 0.5 µM; ATP 10 µM
Please answer using a numeric value trailed by its unit.

Sample records with residual activity:
test-smiles | target | residual activity
COc1cc(Nc2c(C#N)cnc3cc(OCCCN4CCN(C)CC4)c(OC)cc23)c(Cl)cc1Cl | PRKACG (human) | 99.2%
CO[C@@H]1[C@H](N(C)C(=O)c2ccccc2)C[C@H]2O[C@]1(C)n1c3ccccc3c3c4c(c5c6ccccc6n2c5c31)C(=O)NC4 | PRKACG (human) | 58.1%
Cc1cncc2cccc(S(=O)(=O)N3CCCN(C(=O)CN)C[C@H]3C)c12 | PRKACG (human) | 112%

Consider the compound Cc1nc(-c2ccccc2)c(-c2ccncc2)o1 and give its measured residual activity.
108%

Entry under review: O=C1c2ccccc2-c2nc3nnnn3nc21 . Reported residual activity?
88.5%

Returns the measured residual activity for the input compound. Input: O=C1C(Cl)=C(N2C(=O)CCC2=O)C(=O)c2ccccc21
95.1%

Can you look up the measured residual activity of N#Cc1c[nH]c2c[nH]/c(=N\Cc3cccnc3)cc2/c1=N\c1ccc(F)c(Cl)c1 for me?
115%

Reported residual activity for COc1ccc2c(c1)/C(=C/c1cnc[nH]1)C(O)=N2 : what is it?
110%

For Fc1ccc(-c2nc3n(c2-c2ccncc2)CCS3)cc1 , what is its reported residual activity?
116%

Sample O=C1Nc2ccc(Br)cc2/C1=C\c1cc2c([nH]1)CCCC2 — what was its residual activity?
98.1%

* * *

target: WNK2 (human)
protocol: radiometric filter-binding kinase assay, Kinase HotSpot
assay-setup: compound 0.5 µM; ATP 10 µM
Each entry below lists one item and its recorded residual activity value.
Answer format: numeric, % implied, no suffix.

test-smiles | reported-result
CC(C)(C)c1cc(C=C(C#N)C#N)cc(Br)c1O | 126

# input compound: O=C1c2ccccc2-c2nc3nnnn3nc21 ; wanted: its residual activity
143

Fill in the blank: the reported residual activity of COc1cc(Nc2c(C#N)cnc3cc(OCCCN4CCN(C)CC4)c(OC)cc23)c(Cl)cc1Cl is ____.
94.2

Returns the measured residual activity for the input compound. Input: COc1ccc2c(c1)c(C1=C(c3c[nH]c4ccccc34)C(=O)NC1=O)cn2CCCN(C)C
96.5

Would you kindly share the measured residual activity for CO[C@@H]1[C@H](N(C)C(=O)c2ccccc2)C[C@H]2O[C@]1(C)n1c3ccccc3c3c4c(c5c6ccccc6n2c5c31)C(=O)NC4 ?
111

* * *

target: NEK2 (human) (UniProt P51955)
Sequence (P51955 whole entry, looked up): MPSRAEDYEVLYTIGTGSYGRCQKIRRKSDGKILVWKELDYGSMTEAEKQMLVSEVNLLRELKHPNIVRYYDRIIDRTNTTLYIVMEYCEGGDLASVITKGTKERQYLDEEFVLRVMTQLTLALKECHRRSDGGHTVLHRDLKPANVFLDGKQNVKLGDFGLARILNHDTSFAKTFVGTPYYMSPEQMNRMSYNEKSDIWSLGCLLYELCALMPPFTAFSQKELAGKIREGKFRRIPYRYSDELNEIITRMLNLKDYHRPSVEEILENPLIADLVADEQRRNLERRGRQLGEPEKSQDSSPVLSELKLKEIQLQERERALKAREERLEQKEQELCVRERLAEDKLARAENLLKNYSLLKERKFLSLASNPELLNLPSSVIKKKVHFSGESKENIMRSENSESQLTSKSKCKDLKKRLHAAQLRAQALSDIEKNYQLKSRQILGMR
protocol: radiometric filter-binding kinase assay, Kinase HotSpot
assay-setup: compound 0.5 µM; ATP 10 µM
measure-name: residual activity (%)
Numbers only here, please. The scale is %.

test-smiles | residual activity (%)
O=C1C(Cl)=C(N2C(=O)CCC2=O)C(=O)c2ccccc21 | 88.6

Switching to the query record.
State the recorded residual activity for this entry: COc1ccc(C(=O)Nc2sc3c(c2C(N)=O)CCCC3)cc1OC
95.4

* * *

target: STK4 (human)
protocol: radiometric filter-binding kinase assay, Kinase HotSpot
assay-setup: compound 0.5 µM; ATP 10 µM
The following compounds are shown together with reported residual activity values.
Kindly provide the numeric value in % only, without the unit symbol.

Known results for compounds:
test-smiles | target | measure-name | reported-result
O=C1Nc2ccc(Br)cc2/C1=C\c1cc2c([nH]1)CCCC2 | STK4 (human) | residual activity | 44.1
CCCCc1c(-c2ccc(OC)cc2)[nH]c2nccnc12 | STK4 (human) | residual activity | 82.2
COc1ccc2c(c1)/C(=C/c1cnc[nH]1)C(O)=N2 | STK4 (human) | residual activity | 5.67
Cc1cncc2cccc(S(=O)(=O)N3CCCN(C(=O)CN)C[C@H]3C)c12 | STK4 (human) | residual activity | 95.4
CN(C)c1ccc(/C=C2\C(=O)Nc3ccccc32)cc1 | STK4 (human) | residual activity | 93.2
O=C1NC(=O)c2c1c1c3ccccc3[nH]c1n1cncc21 | STK4 (human) | residual activity | 42.7
COc1cc(Nc2c(C#N)cnc3cc(OCCCN4CCN(C)CC4)c(OC)cc23)c(Cl)cc1Cl | STK4 (human) | residual activity | 7.4
C[C@@H]1CCN(C(=O)CC#N)C[C@@H]1N(C)c1ncnc2[nH]ccc12 | STK4 (human) | residual activity | 95.5
c1ccc2c(-c3ccncc3)c[nH]c2c1 | STK4 (human) | residual activity | 103
N#C/C(=C\c1ccc(O)c(O)c1)C(=O)NCc1ccccc1 | STK4 (human) | residual activity | 95.9

Suppose we examine the compound COc1ccc(Cl)cc1NC(=O)Nc1cc(C)nc2ccccc12 ; what residual activity value has been reported?
98.7

* * *

// residual activity lookup, one value per entry
target: TXK (human)
protocol: radiometric filter-binding kinase assay, Kinase HotSpot
assay-setup: compound 0.5 µM; ATP 10 µM
Value expressed in %; do not type the unit.

Example results:
test-smiles | reported-result
CN(C)c1ccc(/C=C2\C(=O)Nc3ccccc32)cc1 | 96.1
CCCCc1c(-c2ccc(OC)cc2)[nH]c2nccnc12 | 72.7
COc1cc2ncnc(Nc3ccc(OCc4ccccc4)cc3)c2cc1OC | 99.4
Cn1c2ccccc2c2c3c(c4c5ccccc5n(CCC#N)c4c21)CNC3=O | 6.39

// returns reported residual activity for input NC(=O)c1cccc(-c2cc(Nc3ccc(OC(F)(F)F)cc3)ncn2)c1
111

What measured residual activity goes with O=C1NC(=O)c2c1c1c3ccccc3[nH]c1n1cncc21 ?
76.4

If you can, please state the reported residual activity value of O=C1C(Cl)=C(N2C(=O)CCC2=O)C(=O)c2ccccc21 .
95.5

Quick check: residual activity of COc1ccc(S(=O)(=O)N(CCO)c2ccccc2CN(C)C/C=C/c2ccc(Cl)cc2)cc1 ?
95.6

Report residual activity for N#C/C(=C\c1ccc(O)c(O)c1)C(=O)NCc1ccccc1 please.
104

What residual activity value was documented for this compound, O=C1c2ccccc2-c2nc3nnnn3nc21 ?
90.8

* * *

Documented residual activity across a set of compounds
target: MAPK10 (human)
protocol: radiometric filter-binding kinase assay, Kinase HotSpot
assay-setup: compound 0.5 µM; ATP 10 µM
Hi! Could you send only the number? It should be in %, unit omitted.

As a guide, the following entries are already answered.
test-smiles | measure-name | reported-result
CCCCc1c(-c2ccc(OC)cc2)[nH]c2nccnc12 | residual activity | 97.2
NC(=O)c1cccc(-c2cc(Nc3ccc(OC(F)(F)F)cc3)ncn2)c1 | residual activity | 104
CN(C)c1ccc(/C=C2\C(=O)Nc3ccccc32)cc1 | residual activity | 82.9

Give residual activity (MAPK10 (human)) of the following compound: COc1ccc(S(=O)(=O)N(CCO)c2ccccc2CN(C)C/C=C/c2ccc(Cl)cc2)cc1
95.5

Observed residual activity on MAPK10 (human) for c1ccc2c(-c3ccncc3)c[nH]c2c1 , please.
102

// lookup residual activity | system=MAPK10 (human) | key= Cn1c2ccccc2c2c3c(c4c5ccccc5n(CCC#N)c4c21)CNC3=O
94.5

MAPK10 (human) / residual activity / CN(C)CCCn1cc(C2=C(c3c[nH]c4ccccc34)C(=O)NC2=O)c2ccccc21 : value?
99.3

Recorded residual activity for CO[C@@H]1[C@H](N(C)C(=O)c2ccccc2)C[C@H]2O[C@]1(C)n1c3ccccc3c3c4c(c5c6ccccc6n2c5c31)C(=O)NC4 with MAPK10 (human), please?
98.9

What value of residual activity on MAPK10 (human) does O=C1NC(=O)c2c1c1c3ccccc3[nH]c1n1cncc21 have?
96

# get_value(readout= residual activity, system= MAPK10 (human)) for Cc1cncc2cccc(S(=O)(=O)N3CCCN(C(=O)CN)C[C@H]3C)c12
103

* * *

target: CDK1 CCNA2 (human) (UniProt P06493+P20248)
Sequence (P06493 whole entry, looked up): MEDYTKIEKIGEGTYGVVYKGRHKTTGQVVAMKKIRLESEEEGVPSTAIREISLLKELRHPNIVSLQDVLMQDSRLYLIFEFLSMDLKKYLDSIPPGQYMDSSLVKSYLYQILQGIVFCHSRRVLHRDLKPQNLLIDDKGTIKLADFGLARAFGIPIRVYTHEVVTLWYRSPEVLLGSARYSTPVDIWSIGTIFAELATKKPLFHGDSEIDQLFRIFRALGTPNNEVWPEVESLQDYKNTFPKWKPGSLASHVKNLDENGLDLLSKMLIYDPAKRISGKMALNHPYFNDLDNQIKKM
Sequence (P20248 whole entry, looked up): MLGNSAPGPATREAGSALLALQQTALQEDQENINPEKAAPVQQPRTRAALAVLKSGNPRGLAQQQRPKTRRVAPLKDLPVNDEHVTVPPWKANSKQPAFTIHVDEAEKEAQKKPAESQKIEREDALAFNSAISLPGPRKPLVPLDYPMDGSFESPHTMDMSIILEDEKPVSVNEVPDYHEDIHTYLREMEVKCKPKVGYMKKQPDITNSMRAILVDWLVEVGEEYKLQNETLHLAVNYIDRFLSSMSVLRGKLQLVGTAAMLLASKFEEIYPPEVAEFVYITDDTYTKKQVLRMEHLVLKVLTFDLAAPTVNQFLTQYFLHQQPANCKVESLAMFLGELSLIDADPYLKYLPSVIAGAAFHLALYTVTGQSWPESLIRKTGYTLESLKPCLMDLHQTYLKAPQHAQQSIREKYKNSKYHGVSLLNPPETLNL
protocol: radiometric filter-binding kinase assay, Kinase HotSpot
assay-setup: compound 0.5 µM; ATP 10 µM
measure-name: residual activity (%)
Respond numerically; units are % and should not be typed.

Use the examples below as a reference point.
test-smiles | target | residual activity [%]
NCCNc1ncc(C(N)=O)c(Nc2cccc(C(F)(F)F)c2)n1 | CDK1 CCNA2 (human) (UniProt P06493+P20248) | 88.3
O=C(c1cc2cc(O)ccc2[nH]1)c1cc2cc(O)ccc2[nH]1 | CDK1 CCNA2 (human) (UniProt P06493+P20248) | 88.2
Fc1ccc(-c2nc3n(c2-c2ccncc2)CCS3)cc1 | CDK1 CCNA2 (human) (UniProt P06493+P20248) | 94.7

# value lookup — system CDK1 CCNA2 (human) (UniProt P06493+P20248), readout residual activity, item O=C1c2ccccc2-c2nc3nnnn3nc21
48.9

Form entry - test system: CDK1 CCNA2 (human) (UniProt P06493+P20248); read-out: residual activity; compound: CS(=O)(=O)CCNCc1ccc(-c2ccc3ncnc(Nc4ccc(OCc5cccc(F)c5)c(Cl)c4)c3c2)o1
101

Give CDK1 CCNA2 (human) (UniProt P06493+P20248) residual activity for O=C1Nc2ccc(Br)cc2/C1=C\c1cc2c([nH]1)CCCC2
96.3

What is its residual activity for CDK1 CCNA2 (human) (UniProt P06493+P20248)? Entry: C[C@@H]1CCN(C(=O)CC#N)C[C@@H]1N(C)c1ncnc2[nH]ccc12
95.9

Which measured residual activity belongs to N#C/C(=C\c1ccc(O)c(O)c1)C(=O)NCc1ccccc1 , tested on CDK1 CCNA2 (human) (UniProt P06493+P20248)?
92.8

Please state recorded residual activity (tested on CDK1 CCNA2 (human) (UniProt P06493+P20248)) of CCCCc1c(-c2ccc(OC)cc2)[nH]c2nccnc12
65.4

What measured residual activity is associated with COc1ccc2c(c1)c(C1=C(c3c[nH]c4ccccc34)C(=O)NC1=O)cn2CCCN(C)C on CDK1 CCNA2 (human) (UniProt P06493+P20248)?
95.7

Write down the reported residual activity of COc1ccc(C(=O)Nc2sc3c(c2C(N)=O)CCCC3)cc1OC , test system: CDK1 CCNA2 (human) (UniProt P06493+P20248).
105
